test system: T47D hormone-dependent breast cancer cell line; experiment: Cytotoxic assay; conditions: Homo sapiens, 48 h, read-out: Cytotoxic activity IC50, T47D
assay metric: IC50

Known results for compounds:
>>> print(df.to_string())
                              smiles_string                              study_target   obs_value
0      O=C1C(Br)=C(Nc2ccccc2)C(=O)c2ccccc21  T47D hormone-dependent breast cancer cell line     10.1 µM
1    COc1ccc(NC2=C(Cl)C(=O)c3ccccc3C2=O)cc1  T47D hormone-dependent breast cancer cell line  > 50 µg/mL
2  O=C1C(Cl)=C(Nc2ccc([N+](=O)[O-])cc2)C(=O)c2ccccc21  T47D hormone-dependent breast cancer cell line     11.7 µM
3        COc1ccc(NC2=CC(=O)c3ccccc3C2=O)cc1  T47D hormone-dependent breast cancer cell line  > 50 µg/mL

The record that follows has no IC50 shown yet.
**Query** Which IC50 value belongs to O=C1C(Cl)=C(Nc2ccc(I)cc2)C(=O)c2ccccc21 ?
**Result** 52.5 µM

====

assay: Cytotoxic assay; conditions: human, MRC-5 normal embryonic lung cell line
assay metric: IC50 at 48 h (µM)
Return type: number; implicit unit µM.

                             smiles_string  assay_metric  obs_value
0  N#Cc1ccc(NC2=C(Cl)C(=O)c3ccccc3C2=O)cc1  IC50 at 48 h       18.4
1  O=C1C(Cl)=C(Nc2ccc(O)cc2)C(=O)c2ccccc21  IC50 at 48 h       11.4

The record that follows has no IC50 at 48 h shown yet.
**Query** Which IC50 at 48 h value belongs to O=C1C=C(Nc2ccc(F)cc2)C(=O)c2ccccc21 ?
**Result** 21.6

====

Below are IC50 values recorded for wild-type EGFR (Homo sapiens, UniProt P00533).
Return type: number; implicit unit nM.

**Query** Which IC50 value belongs to O=C1C(Cl)=C(Nc2ccc([N+](=O)[O-])cc2)C(=O)c2ccccc21 [compound 8] ?
**Result** 11.4

**Query** Which IC50 value belongs to O=C1C(Cl)=C(Nc2cccc([N+](=O)[O-])c2)C(=O)c2ccccc21 [compound 10] ?
**Result** 18.6

**Query** Which IC50 value belongs to Cc1ccc(NC2=C(Cl)C(=O)c3ccccc3C2=O)cc1 [compound 3] ?
**Result** 3.96

====

test system: A549 lung carcinoma cell line; assay: Cytotoxic assay; conditions: Homo sapiens, A549, 48 h, read-out: Cytotoxic activity IC50, A549
Recorded IC50 by entry

Known results for compounds:
compound	IC50
Cc1ccc(NC2=C(Cl)C(=O)c3ccccc3C2=O)cc1 [compound 3]	> 50 µg/mL
N#Cc1ccc(NC2=C(Cl)C(=O)c3ccccc3C2=O)cc1 [compound 9]	72.7 µM

**Query** Which IC50 value belongs to O=C1C(Cl)=C(Nc2ccc(I)cc2)C(=O)c2ccccc21 [compound 6] ?
**Result** > 50 µg/mL

**Query** Which IC50 value belongs to O=C1C(Br)=C(Nc2ccc(Br)cc2)C(=O)c2ccccc21 [compound 15] ?
**Result** > 50 µg/mL

**Query** Which IC50 value belongs to COc1ccc(NC2=CC(=O)c3ccccc3C2=O)cc1 [compound 18] ?
**Result** > 50 µg/mL

**Query** Which IC50 value belongs to COc1ccc(NC2=C(Cl)C(=O)c3ccccc3C2=O)cc1 [compound 11] ?
**Result** > 50 µg/mL

**Query** Which IC50 value belongs to O=C1C=C(Nc2ccccc2)C(=O)c2ccccc21 [compound 16, 2-(Phenylamino)naphthalene-1,4-dione] ?
**Result** 40.8 µM

**Query** Which IC50 value belongs to COc1cccc2c1C(=O)c1c(O)c3c(c(O)c1C2=O)C[C@@](O)(C(=O)CO)C[C@@H]3O[C@H]1C[C@H](N)[C@H](O)[C@H](C)O1 [doxorubicin, reference compound] ?
**Result** 0.34 µM

====

assay: Cytotoxic assay; details: human, MRC-5 normal embryonic lung cell line
Recorded IC50 at 48 h by entry

Known results for molecules:
In [3]: df
Out[3]:
                                   molecule  assay_metric   obs_value
0  O=C1C(Cl)=C(Nc2cccc([N+](=O)[O-])c2)C(=O)c2ccccc21 [compound 10]  IC50 at 48 h     74.5 µM
1  O=C1C(Br)=C(Nc2ccc(Br)cc2)C(=O)c2ccccc21 [compound 15]  IC50 at 48 h  > 50 µg/mL

**Query** Which IC50 at 48 h value belongs to O=C1C(Cl)=C(Nc2ccc(C(F)(F)F)cc2)C(=O)c2ccccc21 [compound 7] ?
**Result** > 50 µg/mL

**Query** Which IC50 at 48 h value belongs to COc1ccc(NC2=CC(=O)c3ccccc3C2=O)cc1 [compound 18] ?
**Result** > 50 µg/mL

**Query** Which IC50 at 48 h value belongs to O=C1C(Cl)=C(Nc2ccc(I)cc2)C(=O)c2ccccc21 [compound 6] ?
**Result** > 50 µg/mL

====

target: L858R/T790M mutant EGFR (Homo sapiens, UniProt P00533, L858R/T790M); assay: ADP-Glo kinase assay, L858R/T790M mutant EGFR; format: biochemical
Sequence (P00533 25-1210 T790M/L858R): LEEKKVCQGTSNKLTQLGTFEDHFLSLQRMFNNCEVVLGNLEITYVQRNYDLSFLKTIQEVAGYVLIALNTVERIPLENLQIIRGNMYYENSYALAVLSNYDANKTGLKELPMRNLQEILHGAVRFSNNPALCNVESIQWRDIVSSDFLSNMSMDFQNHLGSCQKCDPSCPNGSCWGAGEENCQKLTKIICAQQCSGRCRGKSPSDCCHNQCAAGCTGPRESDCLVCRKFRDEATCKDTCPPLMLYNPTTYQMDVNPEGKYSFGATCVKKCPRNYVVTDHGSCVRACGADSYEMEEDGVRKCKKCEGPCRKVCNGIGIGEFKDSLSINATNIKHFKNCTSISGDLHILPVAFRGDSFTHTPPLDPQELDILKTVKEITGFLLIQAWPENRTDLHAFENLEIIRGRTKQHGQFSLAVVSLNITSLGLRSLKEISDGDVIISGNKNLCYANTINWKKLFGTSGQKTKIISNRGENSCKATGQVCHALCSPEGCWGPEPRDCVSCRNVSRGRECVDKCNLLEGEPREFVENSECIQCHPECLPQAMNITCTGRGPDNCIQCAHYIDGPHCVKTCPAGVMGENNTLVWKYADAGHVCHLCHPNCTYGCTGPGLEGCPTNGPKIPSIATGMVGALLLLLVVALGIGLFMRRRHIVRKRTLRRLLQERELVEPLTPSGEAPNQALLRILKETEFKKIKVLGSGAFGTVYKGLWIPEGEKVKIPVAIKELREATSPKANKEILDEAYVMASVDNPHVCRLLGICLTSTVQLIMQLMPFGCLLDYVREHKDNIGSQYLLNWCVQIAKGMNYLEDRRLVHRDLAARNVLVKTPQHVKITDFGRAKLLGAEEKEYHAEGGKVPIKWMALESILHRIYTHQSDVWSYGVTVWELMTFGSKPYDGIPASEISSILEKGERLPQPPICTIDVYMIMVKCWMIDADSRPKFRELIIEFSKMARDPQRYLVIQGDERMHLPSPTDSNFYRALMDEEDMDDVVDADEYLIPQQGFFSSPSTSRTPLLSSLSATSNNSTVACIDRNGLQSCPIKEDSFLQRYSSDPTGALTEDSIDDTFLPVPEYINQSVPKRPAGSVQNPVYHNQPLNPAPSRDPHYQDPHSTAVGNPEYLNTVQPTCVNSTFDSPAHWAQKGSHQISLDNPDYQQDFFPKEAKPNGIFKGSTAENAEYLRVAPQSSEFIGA
assay metric: IC50

**Query** Which IC50 value belongs to Cc1ccc(NC2=C(Cl)C(=O)c3ccccc3C2=O)cc1 ?
**Result** > 100 nM

**Query** Which IC50 value belongs to O=C1C(Cl)=C(Nc2cccc([N+](=O)[O-])c2)C(=O)c2ccccc21 ?
**Result** > 100 nM

**Query** Which IC50 value belongs to O=C1C(Cl)=C(Nc2ccc([N+](=O)[O-])cc2)C(=O)c2ccccc21 ?
**Result** > 100 nM

====

tested on: T47D hormone-dependent breast cancer cell line; experiment: Cytotoxic assay; conditions: Homo sapiens, 48 h, read-out: Cytotoxic activity IC50, T47D
Recorded IC50 by entry
Return type: number; implicit unit µM.

Known results for molecules:
>>> df
                              smiles_string  unit_descriptor  obs_value
0   N#Cc1ccc(NC2=C(Cl)C(=O)c3ccccc3C2=O)cc1               µM       11.3
1  O=C1C(Cl)=C(Nc2cccc([N+](=O)[O-])c2)C(=O)c2ccccc21               µM       19.2

**Query** Test system T47D hormone-dependent breast cancer cell line; read-out IC50; what value for O=C1C(Br)=C(Nc2ccc(F)cc2)C(=O)c2ccccc21 ?
**Result** 28.5

====

Recorded log10 of IC50 by entry
tested on: MDA-MB-231 hormone-independent breast cancer cell line; experiment: Cytotoxic assay; conditions: Homo sapiens, MDA-MB-231, 48 h, read-out: Cytotoxic activity IC50, MDA-MB-231
Log10 applied to IC50; unit prior to transform: µM.

**Query** Which log10 of IC50 value belongs to O=C1C(Br)=C(Nc2ccc(Br)cc2)C(=O)c2ccccc21 [compound 15] ?
**Result** 1.82

**Query** Which log10 of IC50 value belongs to COc1ccc(NC2=C(Cl)C(=O)c3ccccc3C2=O)cc1 [compound 11] ?
**Result** 2.02

**Query** Which log10 of IC50 value belongs to O=C1C(Cl)=C(Nc2ccc(O)cc2)C(=O)c2ccccc21 [compound 12] ?
**Result** 0.68

**Query** Which log10 of IC50 value belongs to O=C1C(Cl)=C(Nc2ccc(C(F)(F)F)cc2)C(=O)c2ccccc21 [compound 7] ?
**Result** 1.85

**Query** Which log10 of IC50 value belongs to O=C1C=C(Nc2ccccc2)C(=O)c2ccccc21 [compound 16, 2-(Phenylamino)naphthalene-1,4-dione] ?
**Result** 1.48

**Query** Which log10 of IC50 value belongs to O=C1C=C(Nc2ccc(F)cc2)C(=O)c2ccccc21 [compound 17] ?
**Result** 1.34

**Query** Which log10 of IC50 value belongs to O=C1C(Cl)=C(Nc2ccc([N+](=O)[O-])cc2)C(=O)c2ccccc21 [compound 8] ?
**Result** 1.05

**Query** Which log10 of IC50 value belongs to Cc1ccc(NC2=C(Cl)C(=O)c3ccccc3C2=O)cc1 [compound 3] ?
**Result** 1.03

**Query** Which log10 of IC50 value belongs to O=C1C(Cl)=C(Nc2cccc([N+](=O)[O-])c2)C(=O)c2ccccc21 [compound 10] ?
**Result** 1.21

====

test system: A549 lung carcinoma cell line; assay: Cytotoxic assay; conditions: Homo sapiens, A549, 48 h, read-out: Cytotoxic activity IC50, A549
Recorded IC50 by entry
Return type: number; implicit unit µM.

                              smiles_string  assay_metric  obs_value
0   O=C1C(Br)=C(Nc2ccc(F)cc2)C(=O)c2ccccc21          IC50         50
1  O=C1C(Cl)=C(Nc2cccc([N+](=O)[O-])c2)C(=O)c2ccccc21          IC50        114
2   O=C1C(Cl)=C(Nc2ccc(O)cc2)C(=O)c2ccccc21          IC50       30.7

**Query** Test system A549 lung carcinoma cell line; read-out IC50; what value for O=C1C(Cl)=C(Nc2ccc(F)cc2)C(=O)c2ccccc21 ?
**Result** 148

**Query** Test system A549 lung carcinoma cell line; read-out IC50; what value for O=C1C(Br)=C(Nc2ccccc2)C(=O)c2ccccc21 ?
**Result** 27.9

**Query** Test system A549 lung carcinoma cell line; read-out IC50; what value for O=C1C(Cl)=C(Nc2ccc([N+](=O)[O-])cc2)C(=O)c2ccccc21 ?
**Result** 70
